Tested on: SF-539 CNS
Assay: NCI tumour cell line growth inhibition, 48 h
Entries and their TGI

Molecule	Target entity	Readout units	Comparative sign	TGI
C=C(C1=CC(=O)C(C)(C)O1)[C@@H]1CC=C([C@@H]2CC[C@H]3[C@@]2(C)CC[C@H]2C(C)(C)C(=O)[C@H](OC(=O)CC(C)(O)CC(=O)O)C[C@]32C)[C@H](O)O1 (stereo partly drawn)	SF-539 CNS	µM	=	24.7
COc1c(N2CCN(CN3C(=O)C(=O)c4ccccc43)C(C)C2)c(F)cc2c(=O)c(C(=O)O)cn(C3CC3)c12 (stereo not drawn)	SF-539 CNS	µM	>	100
COc1cc2c3cc1Oc1c(OC)c(OC)cc4c1C(Cc1ccc(O)c(c1)-c1cc(ccc1OC)CC3N(C)CC2)N(C)CC4 (stereo not drawn)	SF-539 CNS	µM	=	23.4

###

Test system: OVCAR-3 ovarian
Test: NCI tumour cell line growth inhibition, 48 h
Measure: GI50

>>> df
                                   molecule    target_entity   result
0  CCCCCCC(O)C(O)CCC(O)C1CCC(CCCCC(O)CC2=CC(C)OC2=O)O1 (stereo not drawn)  OVCAR-3 ovarian  13.7 µM
1             CCN(CC)CCOc1ccc(Cc2ccccc2)cc1  OVCAR-3 ovarian  26.9 µM
2  C[C@@H]1OC(=O)NN=C1c1ccc(-c2ccc(F)cc2)c(C(F)(F)F)c1  OVCAR-3 ovarian  6.01 µM
3  COCC(=O)NC/C=C/c1ccc2ncnc(Nc3ccc(Oc4ccc(C)nc4)c(C)c3)c2c1  OVCAR-3 ovarian  10.4 µM
4  COc1ccc2c(c1)c(-c1ccc(-c3cn(C)c4ccc(OC)cc34)o1)cn2C  OVCAR-3 ovarian  8.51 µM
5  COC(=O)[C@H](Cc1cn(C)cn1)NC(=O)[C@@H](NC(=O)Nc1cc(C(F)(F)F)cc(C(F)(F)F)c1)C(C)(C)C  OVCAR-3 ovarian  > 10 µM
6  CCCCCCCCCCCCC(NC(C)=O)(C(=O)OCC)C(=O)OCC  OVCAR-3 ovarian  11.7 µM
7           CCCCCC(=C/c1ccccc1)/C=N/N=C(N)N  OVCAR-3 ovarian  1.27 µM

###

Measured TGI values are reported for all entries that follow.
Tested on: MALME-3M melanoma
Experiment: NCI tumour cell line growth inhibition, 48 h
Measure: TGI (µM)

Molecule	Comparative sign	Numeric value
C=C(C)C1CC2=C(O1)C(=O)c1cccc(O)c1C2=O (centres undefined)	=	2.31
COC(=O)CCCNC(=O)C(=O)c1c(O)c(O)c(C(C)C)c2cc(C)c(-c3c(C)cc4c(C(C)C)c(O)c(O)c(C(=O)C(=O)NCCCC(=O)OC)c4c3O)c(O)c12	=	12.9
CC(C)C1=CC23CCC4C(C)(C(=O)O)CCCC4(C)C2CC1C1C(=O)N(c2cccc(N4C(=O)C5C6CC7C8(C)CCCC(C)(C(=O)O)C8CCC7(C=C6C(C)C)C5C4=O)c2)C(=O)C13 (centres undefined)	=	32.9
COc1ccc(/C=C2/SC(c3c(O)ccc4ccccc34)N(NC(=O)CCCCCCCCC(=O)NN3C(=O)/C(=C\c4ccc(OC)c(OC)c4)SC3c3c(O)ccc4ccccc34)C2=O)cc1OC (centres undefined)	=	51.4
CC1(C)/C(=N\Nc2ccc([N+](=O)[O-])cc2[N+](=O)[O-])C2CCC1C2 (centres undefined)	>	100
Cc1ccc(N2C3=C(CC4=C2CC(C)(C)CC4=O)C(=O)CC(C)(C)C3)cc1	>	100
C/C(=N\Nc1nc2ccccc2o1)c1cc2ccccc2cn1	=	5.51
CS(=O)(=O)CCC(N)P(=O)(O)O (centres undefined)	>	100
COc1ccc(NC(=O)CC(=O)N2N=C(C)C(N=Nc3ccc(C(=O)O)cc3)C2=O)cc1 (centres undefined)	>	100
CCOC(=O)C(=O)C(/C(=N/N(C)C)C(=O)Nc1ccc(C)cc1C)c1nc2ccccc2[nH]c1=O (centres undefined)	>	100
O=C(Nc1nccs1)NS(=O)(=O)n1cnc2ccccc21	>	100
CCCCN1CCC(O)(c2cc(C(=O)O)[nH]c2-c2cc(C)no2)C1=O (centres undefined)	>	100
CCCCCN(CCCCC)C(=O)[C@H](CCC(=O)OCc1ccccc1)NC(=O)c1cc2ccccc2[nH]1	>	100
COc1ccc2[nH]c3c(C)c4ncccc4c(C)c3c2c1	=	3.42
Clc1nc(-c2ccccc2)nc(Cl)c1Cl	=	17.6
CCC1(N)C(=O)OCc2c1cc1n(c2=O)Cc2cc3ccccc3nc2-1 (centres undefined)	>	100
COc1cc(OC)cc(C(=O)Cc2c(C(=O)c3ccccc3)c3ccccc3n2C(=O)c2ccccc2)c1	>	100
O=S(=O)(NCCNc1cc(-c2cn(-c3ccccc3)nc2-c2cccc(O)c2)ccn1)c1ccc(Br)cc1	=	5.08
C#CCN(Cc1nc2cc(C(F)(F)F)ccc2nc1-c1ccccc1)c1ccc(F)cc1	=	53.5

###

Tested on: DMS 114 small cell lung
Assay: NCI tumour cell line growth inhibition, 48 h
Listed here: items and their measured TGI.
Measure: TGI (µM)

>>> df
                                   compound  comparative_sign  numeric_value
0  CC(=O)OC1(C#N)CC2OC1C1N=NN(C(=O)OC(C)(C)C)C21 (centres undefined)                 >           74.9
1  CCCCC(N)CSSCC(N)CCCC (centres undefined)                 =           37.1
2                    COc1ccc(OCC(C)(C)O)cc1                 >            100
3  COc1ccc2c(c1)c(=O)c1c(NCCCN(C)C)ccc3ncn2c31                 =           22.6

###

The entries below come with measured TGI values attached.
System: SNB-19 CNS
Experiment: NCI tumour cell line growth inhibition, 48 h
Where a SMILES comes first, the peptide text is derived from it. [ ]: non-standard residue; d: D form. The star is where a group is joined. ξ: configuration not given here. ξPhe(4-NO2) = NC(Cc1ccc([N+](=O)[O-])cc1)C(=O)O; Boc = CC(C)(C)OC(=O)*
Measure: TGI

Compound	Measure	Result
COc1ccc(/C=C2\CCc3ccccc3C2=O)cc1OC	TGI	> 100 µM
Fc1cc2nc3n(c2cc1F)C(c1c(Cl)cccc1Cl)SC3 (configuration not stated)	TGI	27 µM
N[C@@H](Cc1ccc2oc3cc(=O)c4ccccc4c-3nc2c1)C(=O)O	TGI	77.6 µM
COc1ccc(Br)c(C=Nc2cccc3cc(OC)c(OC)cc23)c1	TGI	> 100 µM
CN1CCN(c2ccc(-c3cccc(CN4CCOCC4)c3)cc2NC(=O)c2c[nH]c(=O)cc2C(F)(F)F)CC1	TGI	> 100 µM
Cc1nc2ccccc2c(/C=C/c2ccccc2)c1C(=O)/C=C/c1ccccc1	TGI	2.96 µM
COc1ncc(C#CC(=O)c2ccccc2)c(OC)n1	TGI	31.6 µM
C[C@H]1[C@H](C)CC[C@]2(C(=O)OC3OC(CO)C(O)C(O)C3O)CC[C@]3(C)C(=CC[C@@H]4[C@@]5(C)C[C@@H](O)[C@@H]6OC(=O)c7cc(O)c(O)c(O)c7-c7c(cc(O)c(O)c7O)C(=O)OC[C@]6(CO)[C@@H]5CC[C@]43C)[C@H]12 (some centres not stated)	TGI	> 77.9 µM
CN(C(=O)c1ccc(Cl)cc1)C(=S)N1CCN(c2ccccc2)CC1	TGI	> 100 µM
Cc1ccc(N2C3=C(CC4=C2CC(C)(C)CC4=O)C(=O)CC(C)(C)C3)cc1	TGI	> 100 µM
O=C1CN(c2ccccc2)C(=O)CN1CCN1CC(=O)N(c2ccccc2)CC1=O	TGI	> 100 µM
NS(=O)(=O)c1nnc(NC(=O)/C=C/C(=O)O)s1	TGI	> 100 µM
CC(CCC(=O)O)c1ccc(Br)cc1 (configuration not stated)	TGI	> 100 µM
Cc1ccc(-n2c3c(c4c(CN)c(O)ccc42)CCc2ccccc2C3=O)cc1	TGI	38.4 µM
CCN(CC)c1ccc(/C=N/NC(=O)c2ccccc2Nc2ccnc(C(F)(F)F)c2)c(O)c1	TGI	> 100 µM
COc1ccc(C[C@H]2NC[C@H](O)[C@H]2OC(C)=O)cc1	TGI	0.289 µM
COc1c(Cl)[c]([Hg][O]C(C)=O)c(NCC(C)=O)c(OC)[c]1[Hg][O]C(C)=O	TGI	11.2 µM
CCNC(=O)CNC(=O)C(Cc1ccc([N+](=O)[O-])cc1)NC(=O)OC(C)(C)C (configuration not stated) (Boc-[ξPhe(4-NO2)]-Gly-NHEt)	TGI	> 100 µM
O=C1CCC(N2C(=O)c3cccc(NCCOCCOCCNC(=O)c4cc5c(o4)C(=O)c4ccccc4C5=O)c3C2=O)C(=O)N1 (configuration not stated)	TGI	3.52 µM
Nc1ncnc2c1cnn2COCC(O)CO (configuration not stated)	TGI	> 100 µM
COc1cc(C(=O)N(C(=S)OC23CC4CC(CC(C4)C2)C3)c2ccccc2)cc(OC)c1OC	TGI	> 100 µM
CC(C)C[C@H](NC(=O)CCc1cccc2ccccc12)B(O)O	TGI	> 100 µM
CC1(C)OC2COC(c3[nH]nc4c(=O)[nH]c(=O)[nH]c34)C2O1 (configuration not stated)	TGI	> 100 µM
CC(C)(C)C(=O)CC(=O)C(F)(F)C(F)(F)C(F)(F)F.[Ag]	TGI	43.9 µM
C(/C=C/Nc1ccc(-c2ccccc2)cc1)=Nc1ccc(-c2ccccc2)cc1	TGI	> 100 µM
CCOC(=O)NC(=O)c1cn(C2OC(COC(=O)CCCCCCCCC(=O)OCC3OC(n4cc(C(=O)NC(=O)OCC)c(=O)[nH]c4=O)C4OC(C)(C)OC34)C3OC(C)(C)OC32)c(=O)[nH]c1=O (configuration not stated)	TGI	> 100 µM
COc1cc(/C=C2\Cc3ccccc3C2=O)cc(OC)c1OC	TGI	> 100 µM
NS(=O)(=O)c1ccc(N2C(=O)C(=O)N(c3ccccc3)C2=S)cc1	TGI	> 100 µM
CC(=O)Oc1cc(Cl)c(OC(C)=O)c2c(OC(C)=O)c(C)c(O[Si](C)(C)C(C)(C)C)cc12	TGI	25.7 µM
COc1cc(OC)cc(C(=O)Cc2c(C(=O)c3ccccc3)c3ccccc3n2C(=O)c2ccccc2)c1	TGI	69 µM
COC1C(O)CC(OC2CC(OC3CC(O[C@@H]4C(=O)c5c(cc6cc(OC7CC(OC8CC(O)C(O)C(C)O8)C(O)C(C)O7)c(C)c(O)c6c5O)CC4[C@H](OC)[C@@H](O)C(C)=O)OC(C)C3O)OC(C)C2O)OC1C (some centres not stated)	TGI	> 33.3 µM
CC1(C)CC[C@]2(C(=O)O)CC[C@]3(C)C(=CC[C@@H]4[C@@]5(C)CC[C@H](OC6OC(CO)C(O)C(O)C6O)C(C)(C)[C@@H]5CC[C@]43C)[C@@H]2C1 (some centres not stated)	TGI	2.89 µM
CCCCCC(=C/c1ccccc1)/C=N/N=C(N)N	TGI	4.15 µM
[N-]=[N+]=NC1C2CC3CC(C2)CC1C3 (configuration not stated)	TGI	> 100 µM
CCC(=O)Nc1ncnc2ncn(C(=O)CC)c12	TGI	> 100 µM
Nc1nc(Cl)c(C=O)c(NCC2(CO)CCC2)n1	TGI	34.4 µM
CCOC(OCC)[C@H](N)[C@@H](O)[C@@H](O)[C@H]1COC(C)(C)O1	TGI	> 100 µM
